We begin with a simple list: items and their reported Potency relative to 68F2, 7TD1 cells.
Target: human IL-6 (as added in the B9 and 7TD1 bioassays) (human, UniProt P05231 30-212)
Test: cell-based or functional assay
Number only, no unit.

Consider the following illustrative entries.
111A7_SDM2_M100A (antibody, V domains shown) VH: EVQLLESGGGLVQPGGSLRLSCAASGFTFSSYAMSWVRQAPGKGPEWVSRISAGGGSTYYGDSVKGRFTISRDNSKNTLYLQMNSLRAEDTAVYYCANRAGWGAGDYWGQGTLVTVSS VL: QTVVTQEPSFSVSPGGTVTLTCGLSSGSVTASNYPGWYQQTPGQAPRALIYSTNDRHSGVPDRFSGSISGNKAALTITGAQAEDEADYYCALDIGDITEFGGGTQLTVL	0.43
133E5 (germlined variant of 68F2) (antibody, V domains shown) VH: QVQLQESGPGLVKPSQTLSLTCTVSGGSITSRYYAWSWIRQPPGKGLEWIGVIDYDGDTYYSPSLKSRVTISWDTSKNQFSLKLSSVTPEDTAVYYCARDPDVVTGFHYDYWGQGTQVTVSS VL: QSALTQPPSVSGSPGQTVTISCAGANNDIGTYAYVSWYQQLPGTAPKLMIYKVTTRASGIPDRFSGSKSGNTASLTISGLQAEDEADYYCASYRNFNNAVFGRGTKLTVL	6.69
133A9 (germlined variant of 68F2) (antibody, V domains shown) VH: EVQLQESGPGLVKPSQTLSLTCTVSGGSITTRYYAWSWIRQPPGKGLEWIGVIDYEGDTYYSPSLKSRVTISVDTSKNQFSLKLSSVTAEDTAVYYCARDPDVVTGFHYDYWGQGTMVTVSS VL: QSALTQPPLVSGSPGQTVTISCAGANNDIGTYAYVSWYQQPPGTAPKLMIYKVTTRASGIPDRFSGSISGNTASLTISGLQSEDEADYYCASYRNFNNAVFGTGTKLTVL	3.66

Exercise: Supply measured Potency relative to 68F2, 7TD1 cells of 132E7 (germlined variant of 68F2) (antibody, V domains shown) VH: EVQLQESGPGLVKPSQTLSLTCTVSGGSITSRYYAWSWIRQPPGKGLEWIGVIDYDGDTYYSPSLKSRVTISWDTSKNQFSLKLSSVTPADTAVYYCARDPDVVTGFHYDYWGQGTTVTVSS VL: QSVLTQPPRVSGAPGQTVTISCAGANNDIGTYAYVSWYQQLPGTAPKLLIYKVTTRASGVPDRFSGSKSGNSASLTITGLQAEDEADYYCASYRNFNNAVFGGGTKLTVL in your reply.
Solution: 1.85

Hey, just so you know, these numbers are from patent US20220073604A1.
